Just for reference, patent US20030091557A1 is where these values come from.

binders and their reported IC50 µM (ACE-2 cleavage of M-2195, fluorometric)
# Target Desc: recombinant human ACE-2 (human, UniProt Q9BYF1 18-740, limits assumed)
# Sequence (Q9BYF1 18-740 limits assumed): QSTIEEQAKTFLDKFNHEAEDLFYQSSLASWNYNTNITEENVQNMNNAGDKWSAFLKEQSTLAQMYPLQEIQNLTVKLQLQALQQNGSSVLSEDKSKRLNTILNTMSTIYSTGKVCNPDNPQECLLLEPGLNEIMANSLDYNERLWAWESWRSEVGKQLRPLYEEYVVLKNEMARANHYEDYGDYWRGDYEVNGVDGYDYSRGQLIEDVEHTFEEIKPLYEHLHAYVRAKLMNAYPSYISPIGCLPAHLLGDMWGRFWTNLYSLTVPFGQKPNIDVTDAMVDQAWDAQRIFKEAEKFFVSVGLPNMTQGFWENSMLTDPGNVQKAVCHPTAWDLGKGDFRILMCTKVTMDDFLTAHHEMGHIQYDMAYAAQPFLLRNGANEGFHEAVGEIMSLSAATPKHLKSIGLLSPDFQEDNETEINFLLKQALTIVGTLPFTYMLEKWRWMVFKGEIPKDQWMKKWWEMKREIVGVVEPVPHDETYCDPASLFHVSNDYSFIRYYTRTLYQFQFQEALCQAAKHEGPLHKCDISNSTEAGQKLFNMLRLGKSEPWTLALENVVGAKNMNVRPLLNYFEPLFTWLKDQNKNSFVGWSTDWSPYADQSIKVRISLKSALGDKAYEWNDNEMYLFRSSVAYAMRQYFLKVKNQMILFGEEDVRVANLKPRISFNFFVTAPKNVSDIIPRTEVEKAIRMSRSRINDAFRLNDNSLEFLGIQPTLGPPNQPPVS
# Test Summary: cell-based or functional assay
Bridges are numbered along the chain shown (N, C = ends).
Reported Property: IC50 µM (ACE-2 cleavage of M-2195, fluorometric) (µM)

[
  {
    "Binder": "Ac-GDGFTCSPIRMFPWFRCDLGDPEGGG-NH2 (disulfide 6-17 (inferred)) [DX-601]",
    "Measurement Unit": "µM",
    "Result Value": 0.068
  },
  {
    "Binder": "Ac-GDRYLCLPQRDKPWKFCNWFDPEGGG-NH2 (disulfide 6-17 (inferred); also: oxidized) [DX-599]",
    "Measurement Unit": "µM",
    "Result Value": 0.14
  },
  {
    "Binder": "Ac-GDFSPCKALRHSPWWVCPSGDPEGGG-NH2 (disulfide 6-17 (inferred)) [DX-602]",
    "Measurement Unit": "µM",
    "Result Value": 0.12
  }
]
